These entries and their values trace back to ChEMBL document CHEMBL2034874.

- test description: Cytotoxicity against MDBK cells after 48 to 96 hrs by MTT assay
- Format: cell-based, Bos taurus
- protocol conditions: cattle
result type: CC50 (µM)

INSERT INTO measurements (compound, unit_abbrev, bound_operator, experimental_result) VALUES
  ('COc1ccc(-c2nc3cc(/C(C)=N/NC(N)=O)ccc3n2C2CCCCC2)cc1', 'µM', '=', 54),
  ('C/C(=N\NC(N)=S)c1ccc2[nH]c(-c3ccc(C(F)(F)F)cc3)nc2c1', 'µM', '=', 5),
  ('C/C(=N\NC(N)=S)c1ccc2[nH]c(C3CCCCC3)nc2c1', 'µM', '>', 100),
  ('C/C(=N\O)c1ccc2[nH]c(-c3ccc(Cl)cc3)nc2c1', 'µM', '=', 37),
  ('C/C(=N\NC(N)=S)c1ccc2c(c1)nc(-c1ccc(Cl)cc1)n2C1CCCCC1', 'µM', '>', 100),
  ('CC(=O)c1ccc2[nH]c(-c3ccccc3)nc2c1', 'µM', '>', 100),
  ('COc1ccc(-c2nc3cc(C(C)=O)ccc3[nH]2)cc1', 'µM', '=', 58),
  ('COc1ccc(-c2nc3cc(/C(C)=N/NC(N)=S)ccc3[nH]2)c(OC)c1', 'µM', '>', 100),
  ('COc1ccc(-c2nc3cc(/C(C)=N/O)ccc3[nH]2)cc1', 'µM', '=', 44),
  ('COc1ccc(-c2nc3cc(/C(C)=N/O)ccc3[nH]2)c(OC)c1OC', 'µM', '>', 100),
  ('C/C(=N\NC(N)=S)c1ccc2c(c1)nc(-c1ccccn1)n2C1CCCCC1', 'µM', '=', 41),
  ('COc1ccc(-c2nc3cc(/C(C)=N/NC(N)=S)ccc3n2C2CCCCC2)c(OC)c1', 'µM', '>', 100),
  ('C/C(=N\NC(N)=O)c1ccc2[nH]c(-c3ccoc3)nc2c1', 'µM', '>', 100),
  ('CC(=O)c1ccc2[nH]c(-c3ccoc3)nc2c1', 'µM', '≥', 100),
  ('COc1ccc(-c2nc3cc(C(C)O)ccc3[nH]2)cc1 (stereo not given)', 'µM', '>', 100);
